protocol.details: Human HepG2 cell viability assay in 384 well format
Type: toxicity, cell-based
Set-up: dose 125 nL, time 70.5 hour; concentration not given beside the values
measurement.context: HepG2 cells, read-out: Inhibition
property.name: cytotoxicity at 70.5 h (%)
Your answer is read as %, so omit the unit and give the number.

In: What does the data say about its cytotoxicity at 70.5 h? Entry: CCC1=N[C@@]2(CC[C@@H]3CN(C(=O)NCc4ccccc4)C[C@@H]32)C(=O)N1C
Out: 26.3

In: What does the data say about its cytotoxicity at 70.5 h? Entry: c1cc(CN2CCCC(c3ccnc4nccn34)C2)ccn1 (stereo unspecified)
Out: -3.33

In: What does the data say about its cytotoxicity at 70.5 h? Entry: CC(=O)N1CCC(n2nccc2-c2cnc(NCCO)nc2)CC1
Out: -9.44

In: What does the data say about its cytotoxicity at 70.5 h? Entry: O=C(NCc1cccc(N2CCCCC2=O)c1)[C@@H](O)c1ccccc1
Out: -7.54

In: What does the data say about its cytotoxicity at 70.5 h? Entry: CNC(=O)CCNC(=O)CCc1c(C)nc2cc(O)nn2c1C
Out: -4.97

In: What does the data say about its cytotoxicity at 70.5 h? Entry: O=C1OC2(CCNCC2)CN1CC(=O)N1CCC1c1cccs1 (stereo unspecified)
Out: -6.81

###

protocol.details: Human HepG2 cell viability assay in 384 well format
Type: toxicity, cell-based
Set-up: dose 125 nL, time 70.5 hour; concentration not given beside the values
measurement.context: HepG2 cells, read-out: Inhibition
Kindly state cytotoxicity at 70.5 h for each of the entries shown.
Your answer is read as %, so omit the unit and give the number.

In: What does the data say about its cytotoxicity at 70.5 h? Entry: CCn1c(CN2CCCN(C(=O)OC)CC2)nc2c(F)cccc21
Out: 18.8

In: What does the data say about its cytotoxicity at 70.5 h? Entry: O=C(NCCn1ccc(-c2ccncc2)n1)C1CC1
Out: -12

In: What does the data say about its cytotoxicity at 70.5 h? Entry: CN(C)C(=O)N1CCCC2(CCN(Cc3ccc(Cl)c(F)c3)C2)C1 (stereo not drawn)
Out: -6.53

###

protocol.details: Human HepG2 cell viability assay in 384 well format
Assay type: toxicity, cell-based
Design: dose 125 nL, time 70.5 hour; concentration not given beside the values
measurement.context: HepG2 cells, read-out: Inhibition
Kindly state cytotoxicity at 70.5 h for each of the entries shown.
Your answer is read as %, so omit the unit and give the number.

In: What does the data say about its cytotoxicity at 70.5 h? Entry: CCN(Cc1noc(C2CCC2)n1)C(=O)c1cn2ccsc2n1
Out: 14.6

In: What does the data say about its cytotoxicity at 70.5 h? Entry: Cn1ncc2c(N[C@H]3CC[C@@H](N)CC3)nc(C(C)(C)C)nc21
Out: 6.09

In: What does the data say about its cytotoxicity at 70.5 h? Entry: Cc1cc(CN2CCCN(c3ccc(C#N)cc3)CC2)no1
Out: -7.74

In: What does the data say about its cytotoxicity at 70.5 h? Entry: O=c1[nH]c(CN2CCOC(Cn3cccn3)C2)nc2ccccc12 (stereo not given)
Out: -6.2

In: What does the data say about its cytotoxicity at 70.5 h? Entry: O=C(CC(F)(F)F)N1C[C@H]2CCN[C@H]2C1
Out: -2.74

In: What does the data say about its cytotoxicity at 70.5 h? Entry: CCOc1ccc(-c2ccc3c(c2)OCO3)cc1C(N)=O
Out: 5.58

In: What does the data say about its cytotoxicity at 70.5 h? Entry: CN(Cc1cn2c(n1)CN(C(N)=O)CC2)Cc1ccco1
Out: -1.71

In: What does the data say about its cytotoxicity at 70.5 h? Entry: COc1ccc(CN2C[C@@H]3OCCN(CC4CCCO4)[C@@H]3C2)cc1 (stereo not given in full)
Out: -19.1

In: What does the data say about its cytotoxicity at 70.5 h? Entry: Cc1cn2c(n1)CCC(NC(=O)c1[nH]ncc1Br)C2 (stereo not given)
Out: -9.45

In: What does the data say about its cytotoxicity at 70.5 h? Entry: CCc1cnc(CNc2ccc(C(=O)N3CCCC(C)C3)cc2C)o1 (stereo not given)
Out: -10.4
